Origin of the recorded values: PubChem BioAssay (NCI)

test system: SF-539 CNS; assay: NCI tumour cell line growth inhibition, 48 h
value_kind: TGI

Some solved cases for reference:
COc1nc2c(c(=O)[nH]1)N=C(c1ccc(Cl)cc1)CC(c1ccccc1)N2 (stereo not given) :: 42.1 µM
O=c1c2ccccc2nc(N/N=C/c2ccc(Cl)cc2)n1-c1ccccc1 :: > 100 µM
COc1cc2c(cc1OC)[C@H]1C(COC(=O)Nc3ccccc3)CN1CC2 (stereo not given in full) :: > 100 µM
Cn1c(=O)[nH]c2c(c1=O)C(=O)CN2 :: > 100 µM
Cc1ccc(NC2=CC(=O)C(=O)c3ccccc32)cc1 :: 3.77 µM

Value of measured TGI for the entry CC1(C)CCC[C@@]2(C)C1CC[C@@]1(CO1)[C@@H]2/C=C\C(C=O)CC=O (stereo not given in full) : > 100 µM

Lab note: O=C(OCc1ccccc1)n1cccc1 gave TGI of > 100 µM

Value of measured TGI for the entry O=C1C2C3C=C4c5ccccc5N(c5ccccc5)C4([C@@H]2C(=O)N1c1ccc(F)cc1)[C@H]1C(=O)N(c2ccc(F)cc2)C(=O)[C@@H]31 (stereo not given in full) : > 100 µM

Per the records, this compound ( N#CC(C#N)=Cn1c(=S)[nH]c2ccc([N+](=O)[O-])cc21 ) has TGI equal to > 100 µM

Recorded result, O=C(NC(CCCCN1C(=O)c2ccccc2C1=O)P(=O)(Oc1ccccc1)Oc1ccccc1)OCc1ccccc1 (stereo not given) , TGI: > 100 µM

###

tested on: SNB-75 CNS; assay: NCI tumour cell line growth inhibition, 48 h
value_kind: TGI

COc1ccc2c(c1)C(=O)c1c-2n(CCCCl)c(=O)c2cc(N)ccc12 :: > 85.7 µM

Lab book: TGI of C=CCN1C(=O)[C@]2(SC1=S)[C@H](c1cccc(Cl)c1)CN(C)[C@]21C(=O)NC2C=CC(Cl)=C[C@H]21 (stereo not given in full) noted as 18.2 µM

Recorded TGI (molecule C=CCC1C(=O)CC2(C)C(CC=C)C(=O)CC12C (stereo not given) ): > 100 µM

# molecule CC1(C)CCC[C@@]2(C)C1CC[C@@]1(CO1)[C@@H]2/C=C\C(C=O)CC=O (stereo not given in full) ; its TGI = > 100 µM

The molecule identified as COc1ccc(NC(/C(C(=O)C(=O)/C=C(\O)c2ccccc2)=C(\O)c2ccccc2)c2ccc(OC)cc2)cc1 (stereo not given) registered its TGI at 51.9 µM

Sure, the documented TGI for C/C=C1/C(=Cc2[nH]c(C=c3[nH]/c(=C/C4=NC(=O)C(CC)=C4C)c(C)c3CCC(=O)O)c(CCC(=O)O)c2C)NC(=O)C1C (stereo not given) is > 50 µM

The value of TGI measured for the molecule CC12CCC(=O)[C@@]1(C)CCCC2O (stereo not given in full) turned out to be > 100 µM

Record summary for CCOC(=O)CCn1cnc(N)n1 : reported TGI = > 100 µM

###

test system: OVCAR-4 ovarian; assay: NCI tumour cell line growth inhibition, 48 h
This section presents molecules with their documented TGI values.

Reported TGI (OVCAR-4 ovarian) for entry N#Cc1c(N)c2c(c(-c3ccccc3)c1-c1ccccc1)C(=O)N(O)C2=O is > 100 µM

###

Below: a set of entries, each annotated with reported TGI.
test system: BT-549 breast; assay: NCI tumour cell line growth inhibition, 48 h

c1ccc(/C(=N\Nc2nc3ccccc3s2)c2ccccn2)cc1 :: > 100 µM
CCN1C/C(=C\c2ccc(Cl)cc2)c2[nH]c(=O)c(C#N)c(-c3ccc(Cl)cc3)c2C1 :: > 100 µM
O=C(NCCN(CCNC(=O)c1cccc(=O)n1O)CCNC(=O)c1cccc(=O)n1O)c1cccc(=O)n1O :: > 100 µM
Cc1cnc2[nH]c(-c3ccc(Cl)cc3)cc(=O)c2c1 :: > 100 µM
COc1cc(C(=O)OC2CC34CCNC35CC(OC5(OC)C2O)c2cc3c(cc24)OCO3)ccc1O (stereo not drawn) :: > 100 µM

# TGI of C=C1C(O)C2CC(C)(C)C(=O)C2=C(CC(C)C)C12CC2 (stereo not drawn) = > 100 µM

Looking up COC1C(=O)N(SC)C1c1ccccc1Cl (stereo not drawn) , I see its TGI listed as 54.2 µM

Just so you know, measured TGI for CC1(C)CN(CCNc2nccc(-c3c(-c4cccc(O)c4)nc4sccn34)n2)S(=O)(=O)N1 came out at > 33.2 µM
